Provide the recorded TGI for the entries that follow.
tested on: OVCAR-3 ovarian; experiment: NCI tumour cell line growth inhibition, 48 h
One number for each entry, in µM.

[
  {
    "Compound": "O=c1c2ccccc2c(C=NCCNCCO)c2oc3ccccc3n12",
    "Measurement Units": "µM",
    "TGI": 24
  },
  {
    "Compound": "COC(=O)c1ccc(NCc2cc(O)c3ccccc3c2O)cc1",
    "Measurement Units": "µM",
    "TGI": 28.2
  },
  {
    "Compound": "CO/N=C(\\COc1ccc2c(=O)cc(-c3ccccc3)oc2c1)c1ccc(OC)cc1",
    "Measurement Units": "µM",
    "TGI": 44.8
  },
  {
    "Compound": "Cc1cc2cc(Oc3ccnc(Nc4cccc(CS(=O)(=O)NCCN(C)C)c4)n3)ccc2[nH]1",
    "Measurement Units": "µM",
    "TGI": 15.8
  },
  {
    "Compound": "O=C(N/N=C/c1cc(Br)cc(Br)c1[O-])c1ccccc1O.O=C(N/N=C/c1cc(Br)cc(Br)c1[O-])c1ccccc1O.[Cl-].[Fe+3]",
    "Measurement Units": "µM",
    "TGI": 12.8
  }
]

Batch request: TGI per item, same order as input.
1. CCCC/C=C1\CCC(CN2CCOCC2)C1=O (stereo not given)
2. CC1(C)[C@@H]2C[C@H]1C(Cc1ccccc1C[C@H]1c3cc(-c4ccccn4)ncc3[C@H]3C[C@@H]1C3(C)C)c1cc(-c3ccccn3)ncc12 (stereo not given in full)
3. CC[O+]=c1cccc2ssnc1-2
4. CCOC(=O)C1=C(C)N(Cc2ccc(Cl)cc2Cl)C2(O)C(OC)CC(=O)C3C(=O)N(c4ccccc4)C(=O)C132 (stereo not given)
5. Cc1cc(C)c(S(=O)(=O)Oc2ccccc2[N+](=O)[O-])c(C)c1
6. CC(C)NCCCNC1=C(Cl)C(=O)c2ccccc2C1=O
7. C=CCCC12CCCC(=O)C1Sc1ccc3ccccc3c12 (stereo not given)
8. CCCN(CCC)C(=O)Cc1c2n(c3ccccc13)CCCc1ccccc1-2

[out]
1. 19.3
2. 1.45
3. 99.8
4. 3.44
5. 3.63
6. 3.58
7. 29
8. 29.5

Batch request: TGI per item, same order as input.
1. COc1cccc2c1[C@H](OC)[C@]13O[C@@]1(C2=O)[C@H](O)[C@H](C)[C@@](O)(C(=O)[C@@H]1O[C@H]1C)[C@@H]3O
2. CCc1nc2cc(/C=C/C(=O)NO)c(F)cc2c(=O)n1CCc1ccccc1
3. CNC1=C(Br)C(=O)C2=C(C1=O)C1C3=C(C(=O)C=CC3=O)C2c2ccccc21 (stereo not given)
4. COc1ccc(C(F)(F)F)cc1NC(=O)O/N=C(/Cl)C(C)C

[out]
1. 1.96
2. 4.76
3. 10.9
4. 34.8
